Catalogue of Solubility in 20 mM HEPES pH 7.4 readings, one per entry.
TEST: Solubility determination for selected C5aR-antagonists
Assay type: physicochemical
EXPERIMENTAL CONTEXT: 20 mM HEPES pH 7.4, 24 h at RT
Protocol: Solubility of compounds was determined by the following procedure: 20 μl of a 10 mM stock solution (in DMSO) of the compound were diluted in 980 μl of the solvent to be tested. After incubation for 24 h at RT under shaking the samples are centrifuged at 11.000 rpm in an Eppendorf centrifuge. The supematant is determined by photometry. […] The UV-absorption of the supernatant was measured and compared to a respective reference value 60% MeOH).
Starred links: 1 amine or outer side, 2 acyl side, 3 side chain; linkers in the order of their positions; H or OH if unused. Positions of bridges follow the written chain, without caps; N, C: chain ends. Non-standard residues stand in square brackets, D forms with d. Residues, ends and D or L forms follow the SMILES beside them. X2 = COC1O[C@H](C(=O)[*:2])[C@@H](O)[C@H](O)[C@H]1N[*:1]; Hyp = O=C(O)[C@@H]1C[C@@H](O)CN1; dCha = N[C@H](CC1CCCCC1)C(=O)O; Nle = CCCC[C@H](N)C(=O)O; Orn = NCCC[C@H](N)C(=O)O

COMPOUND	Solubility in 20 mM HEPES pH 7.4
CCCC[C@@H]1NC(=O)[C@H](Cc2c[nH]c3ccccc23)NC(=O)[C@@H](CC2CCCCC2)NC(=O)[C@@H]2CCCN2C(=O)[C@@H](NC(=O)[C@H](Cc2ccccc2)NC(=O)[C@H]2OC(OC)[C@H](NC(C)=O)[C@@H](O)[C@@H]2O)CCCNC1=O (stereo partly shown) [Compound 4] (Ac-[X2]F[Orn]P[dCha]W[Nle]; lactam 3-C)	84 % of 200 μM
CC(=O)N[C@@H](Cc1ccccc1)C(=O)N[C@H]1CCCNC(=O)[C@H](Cc2ccccc2)NC(=O)[C@H](Cc2c[nH]c3ccccc23)NC(=O)[C@@H](CC2CCCCC2)NC(=O)[C@@H]2CCCN2C1=O [Compound 1, Ac-Phe-[Orn-Pro-cha-Trp-Phe]] (Ac-F[Orn]P[dCha]WF; lactam 2-C)	8 % of 200 μM
CCCC[C@@H]1NC(=O)[C@H](Cc2c[nH]c3ccccc23)NC(=O)[C@@H](CC2CCCCC2)NC(=O)[C@@H]2CCCN2C(=O)[C@@H](NC(=O)[C@H](Cc2ccccc2)NC(C)=O)CCCNC1=O [Compound 28, Ac-Phe-[Orn-Pro-cha-Trp-Nle]] (Ac-F[Orn]P[dCha]W[Nle]; lactam 2-C)	22 % of 200 μM
CC(=O)N[C@@H](Cc1ccccc1)C(=O)N[C@H]1CCCNC(=O)[C@H](Cc2ccccc2)NC(=O)[C@H](Cc2c[nH]c3ccccc23)NC(=O)[C@@H](CC2CCCCC2)NC(=O)[C@@H]2C[C@@H](O)CN2C1=O [Compound 2, Ac-Phe-[Orn-Hyp-cha-Trp-Phe]] (Ac-F[Orn][Hyp][dCha]WF; lactam 2-C)	13 % of 200 μM

###

Catalogue of Solubility in 20 mM HEPES pH 7.4 readings, one per entry.
TEST: Solubility determination for selected C5aR-antagonists
Assay type: physicochemical
EXPERIMENTAL CONTEXT: 20 mM HEPES pH 7.4, 24 h at RT
Positions of bridges follow the written chain, without caps; N, C: chain ends. Non-standard residues stand in square brackets, D forms with d. Residues, ends and D or L forms follow the SMILES beside them. dCha = N[C@H](CC1CCCCC1)C(=O)O; Nle = CCCC[C@H](N)C(=O)O; Orn = NCCC[C@H](N)C(=O)O

COMPOUND	Solubility in 20 mM HEPES pH 7.4
CCCC[C@@H]1NC(=O)[C@H](Cc2c[nH]c3ccccc23)NC(=O)[C@@H](CC2CCCCC2)NC(=O)[C@@H]2CCCN2C(=O)[C@@H](NC(=O)[C@@H](N)Cc2ccccc2)CCCNC1=O [Compound 42, H-Phe-[Orn-Pro-cha-Trp-Nle]] (H-F[Orn]P[dCha]W[Nle]; lactam 2-C)	45 % of 200 μM
CCCC[C@@H]1NC(=O)[C@H](Cc2c[nH]c3ccccc23)NC(=O)[C@@H](CC2CCCCC2)NC(=O)[C@@H]2CCCN2C(=O)[C@@H](NC(=O)[C@H](Cc2ccccc2)NC(=O)[C@H](CCCCN)NC(C)=O)CCCNC1=O [Compound 43, Ac-Lys-Phe-[Orn-Pro-cha-Trp-Nle]] (Ac-KF[Orn]P[dCha]W[Nle]; lactam 3-C)	93 % of 200 μM
CC(=O)N[C@@H](Cc1ccccc1)C(=O)N[C@H]1CCCNC(=O)[C@H](CCCNC(=N)N)NC(=O)[C@H](Cc2c[nH]c3ccccc23)NC(=O)[C@@H](CC2CCCCC2)NC(=O)[C@@H]2CCCN2C1=O [Compound 40, Ac-Phe-[Orn-Pro-cha-Trp-Arg], reference compound]	94 % of 200 μM

The measured values listed here are drawn from patent US7727960B2.
